- System: HOP-92 NSCLC
- Measurement protocol: NCI-60 one-dose screen, 48 h (100 = growth as untreated, 0 = no growth, -100 = all killed)
- Measurement conditions: 10 µM unless noted
- Experimental: Growth inhibition of the HOP-92 human Non-Small Cell Lung tumor cell line is measured as a screen for anti-cancer activity. Cells are grown in 96 well plates and exposed to the test compound for 48 hours. Compounds are tested at a single concentration, which is 10^-5 M for most compounds. The reported endpoint is percent growth (GI% or GIPRCNT), where numbers from 0 - 100% represent growth inhibition, and numbers from -100% - 0 represent cell death. […]
About 83,000 compounds went through this panel and 20% of them were active in at least one assay; those are over-represented in the sample as a whole.
Hi! Could you tag entries with growth below 90% as MET, and those at or above as NOT MET? Much appreciated.

In [3]: df
Out[3]:
                                   compound    group
0  COc1cc(NCC(O)CN(CC(C)C)C2CCCC2)c2ncccc2c1 (stereo unspecified)      MET
1  C=C(C)[C@@H]1CC[C@]2(C=O)CC[C@]3(C)[C@H](CC[C@@H]4[C@@]5(C)CCCNC(C)(C)[C@@H]5CC[C@]43C)[C@@H]12      MET
2  COc1cc(C2CC(c3cccc(Nc4ccncc4)c3)=NN2c2cc(Cl)cc(Cl)c2)cc(OC)c1OC (stereo unspecified)      MET
3    CC1(C)CCCN1CCCN1c2ccccc2Sc2ccc(Cl)cc21      MET
4          CC1(C)CN(Cc2ccccc2)CCN1Cc1ccccc1  NOT MET
5  CN(Cc1ccccc1)c1nc(Cl)c(C2CC(c3ccc(Cl)cc3)=Cc3[nH][nH]c(=O)c32)s1 (stereo unspecified)  NOT MET
6                  Nc1nc(N)nc(NCc2ccccc2)n1  NOT MET
7  COc1cc(NCC(O)CN(CC(C)C)CC(C)C)c2nc(C)ccc2c1 (stereo unspecified)  NOT MET
8  Clc1nc(Cl)c2ncn(CCOCCn3cnc4c(Cl)nc(Cl)nc43)c2n1      MET
9  COc1ccc2c(c1)OC1=C(C(=O)OC1)C2c1cc(OC)c(OC)c(OC)c1 (stereo unspecified)      MET

FYI, the data here is from PubChem BioAssay (NCI).
